experiment: NCI Yeast Anticancer Drug Screen. Data for the rad50 strain (AID 155);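 also: 0% = growth of vehicle-only cultures of the same strain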; details: S. cerevisiae rad50 strain growth inhibition; at 50.0 µM (retest, dose inferred, filed as 5.0); hits give high values
The panel holds about 79,000 compounds, 15% with a hit somewhere; the sample as a whole holds those more often.
Recorded metric: growth inhibition (%)

- Compound: "CC1CCCN(CCc2ccccc2)CC1 (centres undefined)"
  Experimental result: 66
- Compound: "CCCCCOC(=O)CCl"
  Experimental result: 69
- Compound: "O=C(NNC(=O)OCC(Cl)(Cl)Cl)OCC(Cl)(Cl)Cl"
  Experimental result: 1
- Compound: "O=[N+]([O-])c1ccc(C=Cc2ccccc2)cc1.[C-]#[O+].[C-]#[O+].[C-]#[O+].[Cr]"
  Experimental result: 95

====

experiment: NCI Yeast Anticancer Drug Screen. Data for the rad50EPP+ strain (AID 151);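 also: 0% = growth of vehicle-treated control cultures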; settings: S. cerevisiae rad50 mutant strain, at 3.7 µM, hits give high values
The panel holds about 79,000 compounds, 15% with a hit somewhere; the sample as a whole holds those more often.

- Molecule: "C=CC[N+]12CN3CN(CN(C3)C1)C2"
  U: "%"
  growth inhibition: 2
- Molecule: "Nc1nnc(N)n1-n1c(N)nnc1N"
  U: "%"
  growth inhibition: 0
- Molecule: "CCN(CC)CCBr"
  U: "%"
  growth inhibition: 6
- Molecule: "CCC1(O)C(=O)OCc2c1cc1n(c2=O)Cc2c-1nc1ccccc1c2OC (stereo not drawn)"
  U: "%"
  growth inhibition: 28
- Molecule: "Nc1nc(N)c2c(Cl)c(CNc3ccc(C(=O)NC(CC(=O)O)C(=O)O)cc3)ccc2n1 (stereo not drawn)"
  U: "%"
  growth inhibition: 6
- Molecule: "CC1CN=C(Nc2ccccc2)S1 (stereo not drawn)"
  U: "%"
  growth inhibition: -46
- Molecule: "O=C(O)C1C2CCC(C2)C1c1ccccc1 (stereo not drawn)"
  U: "%"
  growth inhibition: -2
- Molecule: "CCOP(=O)(CC(C)P(=O)(OCC)OCC)OCC.C[CH2][Sn]([Cl])([Cl])[CH2]C (stereo not drawn)"
  U: "%"
  growth inhibition: 1
- Molecule: "C=C[C@H]1CN2CC[C@H]1C[C@@H]2[C@@H](O)c1ccnc2ccccc12"
  U: "%"
  growth inhibition: 0
- Molecule: "O=C(NNC(=O)OCC(Cl)(Cl)Cl)OCC(Cl)(Cl)Cl"
  U: "%"
  growth inhibition: -2
- Molecule: "Cc1c(N)nc([C@H](CC(N)=O)NC[C@H](N)C(N)=O)nc1C(=O)N[C@H](C(=O)N[C@H](C)[C@@H](O)[C@H](C)C(=O)N[C@H](C(=O)NCCc1nc(-c2nc(C(=O)NCCC[S+](C)C)cs2)cs1)[C@@H](C)O)C(OC1OC(CO)C(O)C(O)C1OC1OC(CO)C(O)C(OC(N)=O)C1O)c1cnc[nH]1 (stereo partly drawn)"
  U: "%"
  growth inhibition: 7
- Molecule: "C/C(=N\\NC(N)=O)C(CN1CCOCC1)C(c1ccccc1)c1c(O)c2ccccc2oc1=O (stereo not drawn)"
  U: "%"
  growth inhibition: 4
- Molecule: "O=C1c2ccccc2C(=O)C(Cl)C1Cl (stereo not drawn)"
  U: "%"
  growth inhibition: 36

====

assay: NCI Yeast Anticancer Drug Screen. Data for the rad52 strain (AID 147);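 also: 0% = growth of vehicle-treated control cultures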; conditions: S. cerevisiae rad52 mutant growth inhibition; at 3.7 µM; hits give high values
The panel holds about 79,000 compounds, 15% with a hit somewhere; the sample as a whole holds those more often. The source made the active and inactive calls. No stated cut-off is given here; in the data, active means growth inhibition above about 70%; inactive means the rest.

- Smiles string: "O=C(O)CCCc1cc(I)c(N(CCCl)CCCl)c(I)c1"
  growth inhibition: "-35% (inactive)"
- Smiles string: "CO[C@H](/C(C)=C/C=C/C(C)=C/c1coc(C)n1)[C@H](C)[C@H]1C[C@@H](O)[C@@]2(C)O[C@H]2/C=C/[C@@H](C)[C@@H]2C[C@@H](CC(=O)O2)C[C@H]2O[C@@H]2C(=O)O1"
  growth inhibition: "-2% (inactive)"
- Smiles string: "Br[Se]c1ccccn1"
  growth inhibition: "53% (inactive)"
- Smiles string: "C=CC[N+]12CN3CN(CN(C3)C1)C2"
  growth inhibition: "5% (inactive)"

====

assay: NCI Yeast Anticancer Drug Screen. Data for the wt1 strain (AID 149);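 also: 0% = growth of vehicle-treated wt1 cultures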; conditions: S. cerevisiae wt1 strain (SPY 50644) growth inhibition; at 33.0 µM; hits give high values
This is part of a sample that, as a whole, favours compounds with a hit. Of some 79,000 tested, about 15% had one in any assay.

- Molecule: "COc1cccc2c1C(=O)c1c(O)c3c(c(O)c1C2=O)C[C@@](O)(C(C)=O)C[C@@H]3OC1CC(N)C(OC2CC(O)C(O)C(C)O2)C(C)O1 (stereo partly specified)"
  growth inhibition, %: -15
- Molecule: "CS(=O)(=O)OCCN(CCOS(C)(=O)=O)c1ccc(C=O)cc1"
  growth inhibition, %: 28
- Molecule: "CC1(Cl)CC(C)(/C=C/Cl)C(Cl)CC1Cl (stereo unspecified)"
  growth inhibition, %: 10
- Molecule: "O=[N+]([O-])c1cc(S(=O)(=O)F)ccc1Cl"
  growth inhibition, %: 93
- Molecule: "NC1=NCC(c2ccc(Cl)cc2)O1 (stereo unspecified)"
  growth inhibition, %: -5
- Molecule: "C[C@]12CCc3nonc3C1CC[C@@H]1C2CC[C@]2(C)C(=O)CCC12 (stereo partly specified)"
  growth inhibition, %: 6
- Molecule: "NCCc1ccc(OCc2ccccc2)c(OCc2ccccc2)c1"
  growth inhibition, %: 74
- Molecule: "O=C(COc1ccc(Cl)cc1Cl)NO"
  growth inhibition, %: -1
- Molecule: "O=[N+]([O-])c1ccc(-n2nc3ccc4c(no[n+]4[O-])c3[n+]2[O-])c([N+](=O)[O-])c1"
  growth inhibition, %: 0
- Molecule: "COc1cc(O)c2c(O)c3c(c4c2c1[C@]1(C4)C(C)=CCCC1(C)C)[C@H](O)[C@@]1(O)CC(=O)C(C(N)=O)=C(O)[C@@]1(O)C3=O"
  growth inhibition, %: 97
- Molecule: "CN(CCc1ccc(Br)cc1)CCN1CCCCC1"
  growth inhibition, %: 60
- Molecule: "OC(c1ccc(Br)cc1)C(Cl)(Cl)Cl (stereo unspecified)"
  growth inhibition, %: 89
- Molecule: "Cc1c([N+](=O)[O-])oc2ccc3ccccc3c12"
  growth inhibition, %: 11
- Molecule: "CCOC(=O)C1C2c3ccccc3C(c3ccccc32)C1C(=O)OCC (stereo unspecified)"
  growth inhibition, %: 2
- Molecule: "c1c(N2CCOCC2)ssc1=[N+]1CCOCC1"
  growth inhibition, %: 0
- Molecule: "C[N+]1(CCCl)CC[N+](C)(CCCl)CC1 (stereo unspecified)"
  growth inhibition, %: 14

====

assay: NCI Yeast Anticancer Drug Screen. Data for the mlh1 rad18 strain (AID 175); settings: S. cerevisiae mlh1 rad18 strain growth inhibition; at 5.0 µM (retest, dose inferred, filed as 0.5)
Compounds without any hit were thinned out: in the full panel of roughly 79,000, 15% have a hit. Active and inactive are the calls of the source. Cut-off read from the data, not from the text of the source: active = growth inhibition above about 70%; inactive = the rest.
Outcomes: active, inactive

- Compound: "O=[N+]([O-])c1cc([N+](=O)[O-])c2cccnc2c1O"
  Qualitative label: "inactive"
- Compound: "COc1cc(C(c2c(O)c3ccccc3oc2=O)c2c(O)c3ccccc3oc2=O)cc(OC)c1O"
  Qualitative label: "inactive"
- Compound: "CCCCCCCCCCCCCCCCP(=O)(O)OP(=O)(O)OCC1OC(n2ccc(N)nc2=O)C(O)C1O (stereo unspecified)"
  Qualitative label: "inactive"
- Compound: "NP(N)(=O)Nc1ccccc1"
  Qualitative label: "inactive"
- Compound: "Oc1c(-c2ccccc2)cc(-[n+]2c(-c3ccccc3)cc(-c3ccccc3)cc2-c2ccccc2)cc1-c1ccccc1"
  Qualitative label: "active"
- Compound: "O=c1[nH]cc(Cn2cnc3ncccc3c2=O)c(=O)[nH]1"
  Qualitative label: "inactive"
- Compound: "CCCCCCCCCCCCCC(=O)O"
  Qualitative label: "inactive"
- Compound: "CCC[CH2][Sn]1([CH2]CCC)[S]CC[N]1S(=O)(=O)c1ccc(C)cc1"
  Qualitative label: "active"
- Compound: "O=C1C(=O)c2ccccc2-c2ccccc21.O=C1C(=O)c2ccccc2-c2ccccc21.[Hg]"
  Qualitative label: "active"
- Compound: "CN(C)CC1CCCCC1=O (stereo unspecified)"
  Qualitative label: "inactive"
- Compound: "CC(C)(C)C(Br)C(=O)NC(N)=O (stereo unspecified)"
  Qualitative label: "inactive"

====

assay: NCI Yeast Anticancer Drug Screen. Data for the bub3 strain (AID 167); conditions: S. cerevisiae bub3 mutant strain, at 50.0 µM (retest, dose inferred, filed as 5.0), hits give high values
The panel holds about 79,000 compounds, 15% with a hit somewhere; the sample as a whole holds those more often.
Label not met if growth inhibition falls below 70%; label met in every other case.

- Molecule: "C/C1=C\\[C@@H](O)C(=O)/C=C/C=C\\c2csc(n2)[C@@H](C)NC(=O)C[C@@]2(CC1)S(=O)SC(=O)[C@]2(C)O (some centres not stated)"
  Qualitative label: "met"
- Molecule: "C[As](C)SCCC(CCCCC(=O)O)S[As](C)C (configuration not stated)"
  Qualitative label: "not met"
- Molecule: "COC(=O)CCCCCCCCC[CH2][Hg][Cl]"
  Qualitative label: "met"
- Molecule: "[Se]C(=NCc1ccccc1)NCc1ccccc1"
  Qualitative label: "not met"
- Molecule: "CCCCCCC1CC2(Cl)C(Cl)=C(Cl)C1(Cl)C2(Cl)Cl (configuration not stated)"
  Qualitative label: "met"
- Molecule: "[Cl][Sn]1([c]2ccccc2)[O]CCNCC[O]1"
  Qualitative label: "met"
- Molecule: "CCC[CH2][Sn]1([CH2]CCC)[O]N=Cc2ccccc2[O]1"
  Qualitative label: "met"
- Molecule: "CN(C)C(=[Se])[Se]C(=[Se])N(C)C"
  Qualitative label: "met"
- Molecule: "CCOC(=O)C1([Se]c2ccccc2)CCCC1=O (configuration not stated)"
  Qualitative label: "met"
- Molecule: "CC(=O)O.[Au].c1ccc([PH+](c2ccccc2)c2ccccc2)cc1"
  Qualitative label: "met"
- Molecule: "CN(/N=C/c1ccc(Cl)cc1)P(=O)(N1CC1)N1CC1"
  Qualitative label: "not met"
- Molecule: "OC1CCCC[CH]1[Hg][Cl] (configuration not stated)"
  Qualitative label: "met"
- Molecule: "Cc1c(N)nc([C@H](CC(N)=O)NC[C@H](N)C(N)=O)nc1C(=O)N[C@H](C(=O)N[C@H](C)[C@@H](O)[C@H](C)C(=O)N[C@H](C(=O)NCCc1nc(-c2nc(C(=O)NCCC[S+](C)C)cs2)cs1)[C@@H](C)O)C(OC1OC(CO)C(O)C(O)C1OC1OC(CO)C(O)C(OC(N)=O)C1O)c1cnc[nH]1 (some centres not stated)"
  Qualitative label: "met"
- Molecule: "CCC1CC2CCC(O2)C(C)C(=O)OC(C)CC2CCC(O2)C(C)C(=O)OC(CC)CC2CCC(O2)C(C)C(=O)OC(C)CC2CCC(O2)C(C)C(=O)O1 (configuration not stated)"
  Qualitative label: "met"
- Molecule: "CC[C@](O)(C(=O)O)c1cc2n(c(=O)c1CO)Cc1cc3ccccc3nc1-2"
  Qualitative label: "met"
- Molecule: "CO/C(N)=C(\\C#N)N=Cc1cccnc1"
  Qualitative label: "not met"
- Molecule: "C=CCOc1cc2c(ccc1=O)-c1c(cc(OC)c(OC)c1OC)CCC2NC(C)=O (configuration not stated)"
  Qualitative label: "not met"
- Molecule: "[O-][n+]1onc2ccccc21"
  Qualitative label: "met"
- Molecule: "O=C1c2ccccc2C(=O)C(Cl)C1Cl (configuration not stated)"
  Qualitative label: "met"
- Molecule: "COC1CC(CC2CCC(C)C(C(C)C(=O)O)O2)OC2(OC(C)(C3CCC(C)(C4OC(C5OC(O)(CO)C(C)CC5C)CC4C)O3)CC2C)C1C (configuration not stated)"
  Qualitative label: "met"
- Molecule: "O=S(=O)([O-])[O-].[OH3+].[OH3+].[OH3+].[Ru+2].c1ccccc1"
  Qualitative label: "not met"
- Molecule: "CC(C)(C)C[CH2][Hg][Cl]"
  Qualitative label: "met"
- Molecule: "CC1(C)OC2OC3C(CN(CCCl)Cc4ccccc4)OC(c4ccccc4)OC3C2O1 (configuration not stated)"
  Qualitative label: "not met"
- Molecule: "Cc1ccccc1NC(=O)CBr"
  Qualitative label: "met"
- Molecule: "C/C(CCl)=N/NC1=NC(c2ccccc2Cl)P(=O)(NCCCNP2(=O)SC(N/N=C(/C)CCl)=NC2c2ccccc2Cl)S1 (configuration not stated)"
  Qualitative label: "not met"
- Molecule: "O=S(=O)([O-])[O-].[Fe+2].c1ccc(/C(=N\\Nc2ccccn2)c2ccccn2)cc1"
  Qualitative label: "not met"
- Molecule: "N#CN(Cc1ccccc1)C(c1ccccc1)(c1ccccc1)c1ccccc1.[Cl][Sn]([c]1ccccc1)([c]1ccccc1)[c]1ccccc1"
  Qualitative label: "met"
- Molecule: "O=C(O)C1C2C=CC(C2)C1c1ccccc1 (configuration not stated)"
  Qualitative label: "met"
- Molecule: "COc1cc(OC)c(OC)cc1/C=C/[N+](=O)[O-]"
  Qualitative label: "not met"
- Molecule: "CCCCCCCCCCCCCCCCP(=O)(O)OCC(N)C(=O)O (configuration not stated)"
  Qualitative label: "not met"
- Molecule: "Nc1ccc2cc(Br)ccc2c1"
  Qualitative label: "not met"
- Molecule: "Cc1cn(CC2C=CC(CS[As](C)C)O2)c(=O)[nH]c1=O (configuration not stated)"
  Qualitative label: "not met"
- Molecule: "CCOP(=O)(OCC)/C(C#N)=C/c1cccc(C)c1"
  Qualitative label: "not met"
- Molecule: "CC(Cc1ccccc1)N(C)Cc1ccc(-c2ccccc2)o1 (configuration not stated)"
  Qualitative label: "met"
- Molecule: "[Cl][Pt+2][Cl].[NH-]C(c1ccccc1)C([NH-])c1ccccc1 (configuration not stated)"
  Qualitative label: "not met"
- Molecule: "CCCCC1C(=O)NC(=S)N(c2ccccc2)C1=O (configuration not stated)"
  Qualitative label: "not met"
- Molecule: "O=C1CN2C(Cl)(Cl)C2(c2ccccc2)c2cc(Cl)ccc2N1CC1CC1 (configuration not stated)"
  Qualitative label: "met"
- Molecule: "C/C=C(\\C)C(=O)OC1C(C)=C2C(C1OC(=O)CCCCC)C(C)(OC(C)=O)CC(OC(=O)CCC)C1(O)C2OC(=O)C1(C)O (configuration not stated)"
  Qualitative label: "met"
- Molecule: "NC(Cc1c[nH]c2ccccc12)P(=O)(O)O (configuration not stated)"
  Qualitative label: "met"
- Molecule: "Sc1ccc(Cl)cc1"
  Qualitative label: "not met"
